Task for the reader: assign each of the following molecules its reported chromatographic logP.
# assayExplanation: log P determination (HPLC, calibration with unbranched alkan-2-ones)
# Format: physicochemical
# assayConditions: reversed-phase (C18) HPLC column; * LC-MS determination in the acidic range, pH 2.7, 0.1% aqueous formic acid and acetonitrile, linear gradient 10% to 95% acetonitrile; read-out: log p

Please report the recorded chromatographic logP for Cc1cc(C(F)(F)F)nn1CC(=O)N1CCC(c2nc(C(=O)Sc3cccc4ccccc34)cs2)CC1 . 4.22

Please report the recorded chromatographic logP for Cc1cc(C(F)(F)F)nn1CC(=O)N1CCC(c2nc(C(=O)OCc3ccccc3Cl)cs2)CC1 . 3.7

Please report the recorded chromatographic logP for Cc1cc(C(F)(F)F)nn1CC(=O)N1CCC(c2nc(C(=O)SC3CCCCC3)cs2)CC1 . 4.51

Please report the recorded chromatographic logP for Cc1cc(C(F)(F)F)nn1CC(=O)N1CCC(c2nc(C(=O)SCc3ccc(F)cc3)cs2)CC1 . 4

###

# assayExplanation: log P determination (HPLC, calibration with unbranched alkan-2-ones)
# Type: physicochemical
# assayConditions: reversed-phase C18 HPLC column; * LC-MS determination in the acidic range at pH 2.7, mobile phases 0.1% aqueous formic acid and acetonitrile (0.1% formic acid), linear gradient 10% to 95% acetonitrile; reversed-phase C 18 HPLC; read-out: log p
quantityMeasured: chromatographic logP
// print number alone

Please report the recorded chromatographic logP for Cc1cc(C(F)(F)F)nn1CC(=O)N1CCC(c2nc(C(=O)OCc3ccccc3Br)cs2)CC1 . 3.8

Please report the recorded chromatographic logP for O=C(OC1CCCCC1)c1csc(C2CCN(C(=O)Cn3nc(C(F)F)cc3C(F)F)CC2)n1 . 3.64

Please report the recorded chromatographic logP for O=C(OC1CCCCC1)c1csc(C2CCN(C(=O)Cn3nc(C(F)(F)F)cc3C(F)(F)F)CC2)n1 . 4.39

Please report the recorded chromatographic logP for O=C(Oc1cccc2ccccc12)c1csc(C2CCN(C(=O)Cn3nc(C(F)F)cc3C(F)F)CC2)n1 . 3.64

Please report the recorded chromatographic logP for O=C(OC1CCCCC1)c1csc(C2CCN(C(=S)Cn3nc(C(F)F)cc3C(F)F)CC2)n1 . 4.23

Please report the recorded chromatographic logP for O=C(Oc1cccc2ccccc12)c1csc(C2CCN(C(=O)Cn3nc(C(F)(F)F)cc3C(F)(F)F)CC2)n1 . 4.35

###

# assayExplanation: log P determination (HPLC, calibration with unbranched alkan-2-ones)
# Assay type: physicochemical
# assayConditions: * LC-MS determination in the acidic range at pH 2.7, 0.1% aqueous formic acid and acetonitrile, linear gradient 10% to 95% acetonitrile
quantityMeasured: log p

Please report the recorded log p for Cc1cc(C)n(C(C)(C)C(=O)N2CCC(c3nc(C(=O)OCC4CC4)cs3)CC2)n1 [compound 372] . 3.86*

Please report the recorded log p for Cc1cc(C)n(C(C)(C)C(=O)N2CCC(c3nc(C(=O)OC4CCc5ccccc54)cs3)CC2)n1 (centres unmarked) [compound 376] . 3.68*

Please report the recorded log p for Cc1cc(C)n(C(C)(C)C(=O)N2CCC(c3nc(C(=O)OCCc4ccc(F)cc4)cs3)CC2)n1 [compound 405] . 3.42*

Please report the recorded log p for Cc1cc(C)n(C(C)(C)C(=O)N2CCC(c3nc(C(=O)OC(C)c4ccc(F)cc4)cs3)CC2)n1 (racemic) [compound 403] . 3.47*

Please report the recorded log p for Cc1cc(C)n(C(C)(C)C(=O)N2CCC(c3nc(C(=O)Oc4ccc(F)cc4)cs3)CC2)n1 [compound 413] . 3.21*

Please report the recorded log p for Cc1cc(C)n(C(C)(C)C(=O)N2CCC(c3nc(C(=O)Oc4ccccc4)cs3)CC2)n1 [compound 412] . 3.06*

Please report the recorded log p for Cc1cc(C)n(C(C)(C)C(=O)N2CCC(c3nc(C(=O)OCc4cccs4)cs3)CC2)n1 [compound 443] . 3.06*

Please report the recorded log p for Cc1cc(C)n(C(C)(C)C(=O)N2CCC(c3nc(C(=O)Oc4cccc5ccccc45)cs3)CC2)n1 [compound 377] . 3.82*

###

# assayExplanation: log P determination (HPLC, calibration with unbranched alkan-2-ones)
# Assay type: physicochemical
# assayConditions: reversed-phase (C18) HPLC column; ** determination in the acidic range, pH 2.3, 0.1% aqueous phosphoric acid and acetonitrile, linear gradient 10% to 95% acetonitrile; read-out: log p
quantityMeasured: chromatographic logP
// print number alone

Please report the recorded chromatographic logP for Cc1cc(C(F)(F)F)nn1CC(=O)N1CCC(c2nc(C(=O)OC3CCCc4ccccc43)cs2)CC1 (stereo not shown) [Ex. 6] . 4.01

###

# assayExplanation: log P determination (HPLC, calibration with unbranched alkan-2-ones)
# Type: physicochemical
# assayConditions: pH 2.7; read-out: log P (pH 2.7)
Task for the reader: assign each of the following compounds its reported chromatographic logP.
// print number alone

Please report the recorded chromatographic logP for O=C(OC1CCCCC1)c1csc(C2CCN(C(=O)Cn3nc(C(F)F)cc3C(F)F)CC2)n1 . 3.64

Please report the recorded chromatographic logP for CCOC(=O)Cn1nc(C(F)(F)C(F)(F)F)cc1C(C)(C)C . 4.05

Please report the recorded chromatographic logP for O=C(Oc1cccc2ccccc12)c1csc(C2CCNCC2)n1 . 1.42

Please report the recorded chromatographic logP for CCOC(=O)c1csc(C2CCN(C(=O)Cn3nc(C(F)F)cc3C(F)F)CC2)n1 . 2.52

Please report the recorded chromatographic logP for O=C(OC1CCCCC1)c1csc(C2CCN(C(=O)Cn3nc(C(F)(F)F)cc3C(F)(F)F)CC2)n1 . 4.39

###

# assayExplanation: log P determination (HPLC, calibration with unbranched alkan-2-ones)
# Assay type: physicochemical
# assayConditions: reversed-phase (C18) HPLC column; * LC-MS determination in the acidic range, pH 2.7, 0.1% aqueous formic acid / acetonitrile gradient; read-out: log p
quantityMeasured: chromatographic logP
// print number alone

Please report the recorded chromatographic logP for Cc1cc(C(F)(F)F)nn1CC(=O)N1CCC(c2nc(C(=O)Oc3cccc4ccccc34)cs2)CC1 . 3.75

Please report the recorded chromatographic logP for Cc1cc(C(F)(F)F)nn1CC(=O)N1CCC(c2nc(C(=O)OC3CCCc4ccccc43)cs2)CC1 (centres unmarked) . 4.01

###

# assayExplanation: log P determination (HPLC, calibration with unbranched alkan-2-ones)
# Format: physicochemical
# assayConditions: * LC-MS determination in the acidic range at pH 2.7, mobile phases 0.1% aqueous formic acid and acetonitrile (0.1% formic acid), linear gradient 10% to 95% acetonitrile; reversed-phase C 18 HPLC
quantityMeasured: log p

Please report the recorded log p for Cc1cc(C(F)(F)F)nn1CC(=O)N1CCC(c2nc(C(=O)OC/C=C/c3ccccc3)cs2)CC1 . 3.74*

Please report the recorded log p for Cc1cc(C(F)(F)F)nn1CC(=O)N1CCC(c2nc(C(=O)Oc3cccc4ncccc34)cs2)CC1 . 2.59*

Please report the recorded log p for CCCCCCCCOC(=O)c1csc(C2CCN(C(=O)Cn3nc(C(F)(F)F)cc3C)CC2)n1 . 5.02*

Please report the recorded log p for Cc1cc(C(F)(F)F)nn1CC(=O)N1CCC(c2nc(C(=O)OCC#Cc3ccccc3)cs2)CC1 . 3.70*

###

# assayExplanation: log P determination (HPLC, calibration with unbranched alkan-2-ones)
# Assay type: physicochemical
# assayConditions: * LC-MS determination in the acidic range at pH 2.7, mobile phases 0.1% aqueous formic acid and acetonitrile (0.1% formic acid), linear gradient 10% to 95% acetonitrile; reversed-phase C 18 HPLC
quantityMeasured: log p

Please report the recorded log p for Cc1cc(C(F)(F)F)nn1CC(=O)N1CCC(c2nc(C(=O)OC(c3ccccc3)C3CC3)cs2)CC1 (stereo not shown) . 3.87*

Please report the recorded log p for Cc1cc(C(F)(F)F)nn1CC(=O)N1CCC(c2nc(C(=O)OCc3c(Cl)cc(Cl)cc3Cl)cs2)CC1 . 4.53*

Please report the recorded log p for CC(C)(C)c1cc(C(F)(F)F)nn1CC(=O)N1CCC(c2nc(C(=O)OCC3CCCCC3)cs2)CC1 . 4.51*

Please report the recorded log p for COc1ccc(COC(=O)c2csc(C3CCN(C(=O)Cn4nc(C(F)(F)F)cc4C)CC3)n2)c(OC)c1 . 3.33*

Please report the recorded log p for Cc1c(Cl)c(C(F)(F)F)nn1C(C)C(=O)N1CCC(c2nc(C(=O)Oc3cccc4ccccc34)cs2)CC1 (racemic) . 4.50*

Please report the recorded log p for CC=CC(CC)OC(=O)c1csc(C2CCN(C(=O)C(C)(C)n3nc(C)cc3C)CC2)n1 (mixture of isomers) . 3.78*

Please report the recorded log p for Cc1cc(C(F)(F)F)nn1CC(=O)N1CCC(c2nc(C(=O)O[C@H]3CCCc4ccccc43)cs2)CC1 . 4.06*

###

# assayExplanation: log P determination (HPLC, calibration with unbranched alkan-2-ones)
# Assay type: physicochemical
# assayConditions: pH 2.7; read-out: log P (pH 2.7)
quantityMeasured: chromatographic logP

Please report the recorded chromatographic logP for CCOC(=O)c1csc(C2CCNCC2)n1 . 0.42

Please report the recorded chromatographic logP for CCOC(=O)c1csc(C2CCN(C(=O)Cn3nc(C(F)(F)F)cc3C)CC2)n1 . 2.62

Please report the recorded chromatographic logP for CCOC(=O)Cn1nc(C(F)(F)F)cc1C(C)(C)C . 3.48

Please report the recorded chromatographic logP for CCOC(=O)c1csc(C2CCCNC2)n1 (centres unmarked) . 0.54

Please report the recorded chromatographic logP for Cc1cc(C(F)(F)F)nn1CC(=O)N1CCC(c2nc(C(=O)SC3CCCCC3)cs2)CC1 . 4.51

Please report the recorded chromatographic logP for O=C(O)c1csc(C2CCN(C(=O)Cn3ccc(C(F)(F)F)n3)CC2)n1 . 1.65

Please report the recorded chromatographic logP for Cc1cc(C(F)(F)F)nn1CC(=O)N1CCC(c2nc(C(=O)OC3CCCCC3)cs2)CC1 . 3.74

Please report the recorded chromatographic logP for O=C(Oc1cccc2ccccc12)c1csc(C2CCN(C(=O)Cn3nc(C(F)(F)F)cc3C(F)(F)F)CC2)n1 . 4.35

Please report the recorded chromatographic logP for CCOC(=O)Cn1nc(C(F)(F)F)c(Cl)c1C . 3.11

Please report the recorded chromatographic logP for Cc1cc(C(F)(F)F)nn1CC(=O)N1CCC(c2nc(C(=O)O)cs2)CC1 . 1.82

Please report the recorded chromatographic logP for CC(C)(C)c1cc(C(F)(F)F)n(CC(=O)O)n1 . 2.45

Please report the recorded chromatographic logP for CC(C)(C)c1cc(C(F)(F)C(F)(F)F)n(CC(=O)O)n1 . 2.92

Please report the recorded chromatographic logP for CCOC(=O)Cn1nc(C(C)(C)C)cc1C(F)(F)F . 3.89

Please report the recorded chromatographic logP for O=C(Oc1cccc2ccccc12)c1csc(C2CCN(C(=O)Cn3nc(C(F)F)cc3C(F)F)CC2)n1 . 3.64

Please report the recorded chromatographic logP for CC(C)(C)c1cc(C(F)(F)C(F)(F)F)[nH]n1 . 3.23

Please report the recorded chromatographic logP for O=C(O)c1csc(C2CCN(C(=O)Cn3nc(C(F)F)cc3C(F)F)CC2)n1 . 1.71

Please report the recorded chromatographic logP for CCOC(=O)c1csc(C2CCCN(C(=O)Cn3nc(C(F)(F)F)cc3C)C2)n1 (centres unmarked) . 2.78

Please report the recorded chromatographic logP for Cc1cc(C(F)(F)F)nn1CC(=O)N1CCC(c2nc(C(=O)SCc3ccc(F)cc3)cs2)CC1 . 4

Please report the recorded chromatographic logP for Cc1cc(C(F)(F)F)nn1CC(=O)N1CCC(c2nc(C(=O)Oc3cccc4ccccc34)cs2)CC1 . 3.75

Please report the recorded chromatographic logP for CCOC(=O)Cn1nc(C(C)C)cc1C(F)(F)F . 3.22

Values compiled from patent US8569509B2.
